Target: Phospholipase A2, membrane associated (Homo sapiens, UniProt P14555)
Sequence (P14555 whole entry): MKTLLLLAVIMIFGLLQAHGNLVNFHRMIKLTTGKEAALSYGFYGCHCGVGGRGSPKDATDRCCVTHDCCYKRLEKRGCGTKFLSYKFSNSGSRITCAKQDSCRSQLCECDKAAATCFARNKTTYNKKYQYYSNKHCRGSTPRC
Experiment: Inhibition of human non-pancreatic secretory phospholipase A2 (PLA2) in a chromogenic assay
MEASURE: log10 IC50 (log10 of the value in nM)
The common logarithm of IC50 in nM is what is listed.

Sample records with log10 IC50:
COMPOUND_SMILES: NC(=O)Cc1c(Br)n(Cc2ccccc2)c2cc(Cl)c(O)cc12
log10 IC50: 1.93
//
COMPOUND_SMILES: NC(=O)Cc1c(Br)n(Cc2ccccc2)c2ccc(OCCCC(=O)O)cc12
log10 IC50: 1.86
//
COMPOUND_SMILES: Cc1c(CCC(N)=O)c2cc(OCCCC(=O)O)ccc2n1Cc1ccccc1
log10 IC50: 3.84
//
COMPOUND_SMILES: CCCc1c(CC(N)=O)c2cc(O)ccc2n1Cc1ccccc1
log10 IC50: 4.53

In the following, a different compound is considered.
Complete the entry with log10 IC50 for CCc1c(CC(N)=O)c2cc(OCCCP(=O)(O)O)c(C)cc2n1Cc1ccccc1 1.18

----------
target: UniProtKB P14555; assay: Inhibition of human non-pancreatic secretory phospholipase A2 (PLA2) in a chromogenic assay
pIC50: −log10 of the molar value.
Definition: the class of an entry is the range in b0: < 6; b1: ≥ 6 and < 7; b2: ≥ 7 that contains its pIC50.

Consider the following illustrative entries.
COMPOUND_SMILES: Cc1c(CC(=O)O)c2cc(OCCCC(=O)O)ccc2n1Cc1ccccc1
ASSIGNED_CATEGORY: b0
//
COMPOUND_SMILES: Cc1c(CC(N)=O)c2cc(OCCC(=O)O)ccc2n1Cc1ccccc1
ASSIGNED_CATEGORY: b1
//
COMPOUND_SMILES: CCc1c(CC(N)=O)c2cc(SCCCC(=O)O)c(C(C)C)cc2n1Cc1ccccc1
ASSIGNED_CATEGORY: b2
//
COMPOUND_SMILES: Cc1c(CC(N)=O)c2cc(OCCCC3=NNNN3)ccc2n1Cc1ccccc1
ASSIGNED_CATEGORY: b0

Now look at this entry.
Band for the recorded pIC50 of NC(=O)Cc1cn(Cc2ccccc2)c2cccc(OCC(=O)O)c12 ? b1

----------
target: Phospholipase A2, membrane associated (Homo sapiens, UniProt P14555); experiment: Inhibition of human non-pancreatic secretory phospholipase A2 (PLA2) in a chromogenic assay
pIC50: −log10 of the molar value.
Label Satisfied when pIC50 >= 7; otherwise Not satisfied.

# example entries with known answers
COMPOUND_SMILES: Cc1c(CC(N)=O)c2c(O)cccc2n1Cc1cccc(Cl)c1
ASSIGNED_CATEGORY: Not satisfied
--
COMPOUND_SMILES: CCc1c(CC(N)=O)c2cc(OCCCC(=O)O)c(C)cc2n1Cc1ccccc1
ASSIGNED_CATEGORY: Satisfied
--
COMPOUND_SMILES: Cc1cc(SCCCC(=O)O)cc2c(CC(N)=O)c(C)n(Cc3ccccc3)c12
ASSIGNED_CATEGORY: Satisfied
--
COMPOUND_SMILES: Cc1c(CC(N)=O)c2cc(OCCCCC(=O)O)ccc2n1Cc1ccccc1
ASSIGNED_CATEGORY: Not satisfied
--
COMPOUND_SMILES: NC(=O)Cc1c(C2CC2)n(Cc2ccccc2)c2ccc(OCCCC(=O)O)cc12
ASSIGNED_CATEGORY: Satisfied

Please find the next compound below.
Entry Cc1c(CC(N)=O)c2cc(O)ccc2n1Cc1ccccc1 : is its pIC50 no less than 7? Not satisfied

----------
Molecular target: Phospholipase A2, membrane associated (Homo sapiens, UniProt P14555)
Sequence (P14555 whole entry): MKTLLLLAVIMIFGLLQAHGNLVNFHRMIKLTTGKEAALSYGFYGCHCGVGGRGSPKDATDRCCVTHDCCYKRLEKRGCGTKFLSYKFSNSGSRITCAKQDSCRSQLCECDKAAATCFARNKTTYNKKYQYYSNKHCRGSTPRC
Assay: Inhibition of human non-pancreatic secretory phospholipase A2 (PLA2) in a chromogenic assay
I'd be grateful if you could share measured log10 of IC50 for these entries.
The figures below represent log10 of IC50, where IC50 is stated in nM.

Before answering, review these 2 worked examples.
COMPOUND_SMILES: CCc1c(CC(N)=O)c2cc(SCCC(=O)O)ccc2n1Cc1ccccc1
log10 of IC50: 1.77
--
COMPOUND_SMILES: Cc1c(CC(N)=O)c2cc(OCc3ccccc3C(=O)O)ccc2n1Cc1ccccc1
log10 of IC50: 2.17

For the 3 compounds below, give their log10 of IC50 values.
1. CSc1c(CC(N)=O)c2cc(OCCCC(N)=O)ccc2n1Cc1ccccc1
2. Cc1cc(OCCCC(=O)O)cc2c(CC(N)=O)c(C)n(Cc3ccccc3)c12
3. Cc1c(CC(N)=O)c2cc(NCCCC(=O)O)ccc2n1Cc1ccccc1

1. 1.97
2. 1.88
3. 3.26

----------
target: Phospholipase A2, membrane associated (Homo sapiens, UniProt P14555); assay: Inhibition of human non-pancreatic secretory phospholipase A2 (PLA2) in a chromogenic assay
MEASURE: pIC50
One number for each entry, as −log10 of the molar value.

# annotated cases, reported pIC50 shown
COMPOUND_SMILES: CCc1c(CC(N)=O)c2cc(OCc3ccccc3C(=O)O)ccc2n1Cc1ccccc1
pIC50: 6.26
//
COMPOUND_SMILES: CCc1c(CC(N)=O)c2cc(SCCCP(=O)(O)O)ccc2n1Cc1ccccc1
pIC50: 7.24
//
COMPOUND_SMILES: CCCc1c(CC(N)=O)c2cc(OCCCP(=O)(O)O)ccc2n1Cc1ccccc1
pIC50: 5.21

For each entry beneath this line, provide reported pIC50.
1. CCOC(=O)CCCCOc1ccc2c(CC(N)=O)c(C)n(Cc3ccccc3)c2c1
2. CCc1c(CC(N)=O)c2cc(SCCCC(=O)O)c(C)cc2n1Cc1ccccc1
3. NC(=O)Cc1cn(Cc2ccccc2)c2ccc(OCP(=O)(O)O)cc12
4. CCc1c(CC(N)=O)c2cc(OCCCP(=O)(O)OC)ccc2n1Cc1ccccc1

1. 6.51
2. 7.66
3. 5.43
4. 7.40

Please state, for each entry, its recorded pIC50.
1. Cc1c(CC(N)=O)c2c(OCC(=O)O)cccc2n1Cc1cccc(Cl)c1
2. CCc1c(C(N)=O)c2c(OCC(=O)O)cccc2n1Cc1cccc(Cl)c1

1. 7.28
2. 4.77

----------
Consider the following compounds; for each one, report its Kb.
target: Phospholipase A2, membrane associated (Homo sapiens); assay: Inhibitory activity against contraction of Guinea pig lung tissue induced by PLA2.; assay type: functional, tissue-based; details: Cavia porcellus, target entry is the homologue from another species
One number for each entry, in nM.

COMPOUND_SMILES: CSc1c(CC(N)=O)c2cc(OCCCC(=O)O)ccc2n1Cc1ccccc1
RESULT_UNIT: nM
Kb: 630
--
COMPOUND_SMILES: Cc1c(CC(N)=O)c2c(OCC(=O)NN)cccc2n1Cc1ccccc1
RESULT_UNIT: nM
Kb: 1950
--
COMPOUND_SMILES: NC(=O)Cc1c(Br)n(Cc2ccccc2)c2ccc(OCCCC(=O)O)cc12
RESULT_UNIT: nM
Kb: 530
--
COMPOUND_SMILES: CCOC(=O)CCCCOc1ccc2c(CC(N)=O)c(C)n(Cc3ccccc3)c2c1
RESULT_UNIT: nM
Kb: 22500
--
COMPOUND_SMILES: Cc1c(CC(N)=O)c2cc(OCCCCC(=O)O)ccc2n1Cc1ccccc1
RESULT_UNIT: nM
Kb: 8800
--
COMPOUND_SMILES: NC(=O)Cc1c(Cl)n(Cc2ccccc2)c2ccc(OCCCC(=O)O)cc12
RESULT_UNIT: nM
Kb: 610

Each compound below has a recorded value; state its Kb.
1. CCc1c(CC(N)=O)c2cc(SCCCC(=O)O)ccc2n1Cc1ccccc1
2. Cc1c(CC(=O)NN)c2cc(OCCCC(=O)O)ccc2n1Cc1ccccc1
3. Cc1c(CC(N)=O)c2c(OCC(=O)O)cccc2n1Cc1cccc(Cl)c1
4. Cc1c(CC(N)=O)c2cc(OCC(=O)O)ccc2n1Cc1ccccc1
5. CCc1c(CC(N)=O)c2cc(OCCCP(=O)(O)O)c(C(C)C)cc2n1Cc1ccccc1
6. CCc1c(CC(N)=O)c2cc(OCCCP(=O)(O)OC)ccc2n1Cc1ccccc1

[124, 2170, 190, 8220, 698, 340]

I would be grateful if you could provide Kb for each of the following entries.
1. Cc1c(CC(N)=O)c2cc(OCc3ccccc3C(=O)O)ccc2n1Cc1ccccc1
2. Cc1c(CC(=O)NN)c2cc(OCCCP(=O)([O-])[O-])ccc2n1Cc1ccccc1.[Na+].[Na+]
3. CCc1c(CC(N)=O)c2cc(OCCCC(=O)O)c(C)cc2n1Cc1ccccc1

720
1070
206

From: ChEMBL document CHEMBL1129058
